Biological target: human CGRP receptor (Homo sapiens, UniProt O60894+Q16602)
Construct: SK-N-MC cells are cultivated in “Dulbecco's modified Eagle medium”; endogenous in cells
Sequence (Q16602 23-461): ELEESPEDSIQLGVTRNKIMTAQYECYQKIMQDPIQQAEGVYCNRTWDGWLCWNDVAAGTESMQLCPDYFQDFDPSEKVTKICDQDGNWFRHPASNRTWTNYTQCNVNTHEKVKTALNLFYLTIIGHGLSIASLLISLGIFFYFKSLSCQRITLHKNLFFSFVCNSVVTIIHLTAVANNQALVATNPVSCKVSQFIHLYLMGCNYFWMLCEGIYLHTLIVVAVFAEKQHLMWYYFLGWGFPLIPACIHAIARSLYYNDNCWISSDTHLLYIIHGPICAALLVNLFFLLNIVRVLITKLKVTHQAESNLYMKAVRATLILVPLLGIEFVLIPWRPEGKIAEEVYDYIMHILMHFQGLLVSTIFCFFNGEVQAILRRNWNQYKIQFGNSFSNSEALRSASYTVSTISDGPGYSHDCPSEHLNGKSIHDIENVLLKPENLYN
Sequence (O60894 27-148): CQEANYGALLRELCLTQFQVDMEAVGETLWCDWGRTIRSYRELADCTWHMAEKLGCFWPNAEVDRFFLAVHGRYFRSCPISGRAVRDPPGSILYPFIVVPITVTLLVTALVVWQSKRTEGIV
Test: Binding studies with SK-N-MC cells (expressing the human CGRP receptor)
Conditions: SK-N-MC cell membranes, displacement of 125I-iodotyrosyl-CGRP
Procedure: A. Binding Studies with SK-N-MC Cells (Expressing the Human CGRP Receptor) SK-N-MC cells are cultivated in “Dulbecco's modified Eagle medium”. The medium is removed from confluent cultures. […] After the number of cells has been determined, the cells are homogenised using an Ultra-Turrax and centrifuged for 10 minutes at 3000×g. […] The concentration binding curves are analysed using computer-aided non-linear curve fitting.
pKi: −log10 of the molar value.
Property Name: pKi

                                  structure                                       tgt  data_value
0  Cc1cc(C(=O)c2cc(N3CCC(n4c(=O)[nH]c5ncccc54)CC3)ncn2)cc2oc(=O)[nH]c12  human CGRP receptor (Homo sapiens, UniProt O60894+Q16602)        9.40
1  Cc1cc(C(=O)c2cc(N3CCC(n4nc(-c5ccccc5)[nH]c4=O)CC3)ncn2)cc2oc(=O)[nH]c12  human CGRP receptor (Homo sapiens, UniProt O60894+Q16602)        8.40
2  Cc1cc(C(=O)c2cc(N3CCC(n4c(=O)[nH]c5c6ccccc6ncc54)CC3)ncn2)cc2oc(=O)[nH]c12  human CGRP receptor (Homo sapiens, UniProt O60894+Q16602)        9.00

Taken from patent US8629137B2.
